Biological target: PDGFRA (PDGFR alpha) (Homo sapiens, UniProt P16234)
Construct: purchased Invitrogen
Sequence (P16234 24-1089): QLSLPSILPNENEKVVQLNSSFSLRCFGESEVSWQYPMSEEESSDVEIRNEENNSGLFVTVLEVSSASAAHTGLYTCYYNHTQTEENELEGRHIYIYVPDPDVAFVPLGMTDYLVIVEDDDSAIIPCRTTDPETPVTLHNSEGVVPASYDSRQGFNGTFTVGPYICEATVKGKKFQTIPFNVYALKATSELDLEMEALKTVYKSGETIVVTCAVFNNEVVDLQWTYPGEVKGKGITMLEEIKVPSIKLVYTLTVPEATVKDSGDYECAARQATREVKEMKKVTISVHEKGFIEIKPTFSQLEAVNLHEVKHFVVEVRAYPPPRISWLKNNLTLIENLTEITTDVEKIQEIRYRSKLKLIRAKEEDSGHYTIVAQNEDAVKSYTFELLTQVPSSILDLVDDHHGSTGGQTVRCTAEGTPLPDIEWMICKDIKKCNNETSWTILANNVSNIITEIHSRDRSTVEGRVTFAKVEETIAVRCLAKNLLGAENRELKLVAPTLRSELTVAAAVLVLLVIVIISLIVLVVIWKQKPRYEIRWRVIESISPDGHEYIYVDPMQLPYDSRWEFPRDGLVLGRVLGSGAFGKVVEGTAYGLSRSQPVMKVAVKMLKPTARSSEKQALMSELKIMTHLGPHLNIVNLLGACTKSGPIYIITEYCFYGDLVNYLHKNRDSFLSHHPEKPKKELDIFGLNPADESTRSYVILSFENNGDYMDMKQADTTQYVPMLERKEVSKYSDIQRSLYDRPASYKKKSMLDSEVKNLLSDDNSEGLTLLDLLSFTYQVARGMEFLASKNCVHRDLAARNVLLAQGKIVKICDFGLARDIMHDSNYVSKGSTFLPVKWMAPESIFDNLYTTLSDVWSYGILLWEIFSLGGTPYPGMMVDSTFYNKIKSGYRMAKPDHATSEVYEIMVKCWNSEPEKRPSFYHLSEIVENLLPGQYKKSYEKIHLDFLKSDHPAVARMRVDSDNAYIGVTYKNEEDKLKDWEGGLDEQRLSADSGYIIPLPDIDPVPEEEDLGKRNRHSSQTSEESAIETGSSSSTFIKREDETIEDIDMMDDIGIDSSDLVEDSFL
Assay: In vitro kinase assay (Z′-LYTE)
Type: biochemical
Conditions: read-out: % of inhibition of the kinase compared to the control
endpoint: inhibition at 0.1 µM

1. COC(=O)c1cc2cc(NCc3cc(NC(=O)Cc4ccccc4Br)ccc3C)cnc2[nH]1; ≥ 50%
2. COC(=O)c1cc2cc(NCc3cc(NC(=O)c4cccc(C(C)C)c4)ccc3C)cnc2[nH]1; ≥ 50%
3. COC(=O)c1cc2cc(NCc3cc(NC(=O)c4ccc(CN5CCN(C)CC5)c(C(F)(F)F)c4)ccc3C)cnc2[nH]1; ≥ 50%
4. COC(=O)c1cc2cc(NCc3cc(NC(=O)c4cc(N5CCN(C)CC5)cc(C(F)(F)F)c4)ccc3C)cnc2[nH]1; < 50%
5. COC(=O)c1cc2cc(NCc3cc(NC(=O)c4ccc(Cl)c(C(F)(F)F)c4)ccc3C)cnc2[nH]1; ≥ 50%
6. COC(=O)c1cc2cc(NCc3cc(NC(=O)c4ccc(CN5CCN(C)CC5)c(C(F)(F)F)c4)ccc3Cl)cnc2[nH]1; < 50%
7. COC(=O)c1cc2cc(NCc3cc(NC(=O)c4ccc5[nH]nnc5c4)ccc3C)cnc2[nH]1; ≥ 50%
8. COC(=O)c1cc2cc(NCc3cc(NC(=O)c4cccc5c4OCC5)ccc3C)cnc2[nH]1; ≥ 50%
9. COC(=O)c1cc2cc(NC(=O)c3cc(NC(=O)c4ccc(CN5CCN(C)CC5)c(C(F)(F)F)c4)ccc3C)cnc2[nH]1; ≥ 50%
10. COC(=O)c1cc2cc(NCc3cc(NC(=O)c4ccc(CN5CCNCC5)c(C(F)(F)F)c4)ccc3C)cnc2[nH]1; ≥ 50%
11. COC(=O)c1cc2cc(NCc3cc(NC(=O)c4ccc(O)c(C(F)(F)F)c4)ccc3C)cnc2[nH]1; ≥ 50%
12. COC(=O)c1cc2cc(NCc3cc(NC(=O)C4CCC(C(F)(F)F)CC4)ccc3C)cnc2[nH]1 (centres unmarked); ≥ 50%
13. COC(=O)c1cc2cc(NCc3cc(NC(=O)c4ccnc(C(F)(F)F)c4)ccc3C)cnc2[nH]1; < 50%
14. COC(=O)c1cc2cc(NCc3cc(NC(=O)c4cc[nH]c4)ccc3C)cnc2[nH]1; ≥ 50%
15. COC(=O)c1cc2cc(NCc3cc(NC(=O)c4ccc(C)c(C(F)(F)F)c4)ccc3C)cnc2[nH]1; < 50%
16. COC(=O)c1cc2cc(NCc3cc(NC(=O)c4cccc(C(F)(F)F)c4)ccc3C)cnc2[nH]1; ≥ 50%
17. COC(=O)c1cc2cc(NCc3cc(NS(=O)(=O)c4ccc(C)cc4)ccc3C)cnc2[nH]1; < 50%
18. COC(=O)c1cc2cc(NCc3cc(NC(=O)c4cc(N(C)C)cc(C(F)(F)F)c4)ccc3C)cnc2[nH]1; < 50%
19. COC(=O)c1cc2cc(NC(=O)c3cc(NC(=O)c4cncc(C(F)(F)F)c4)ccc3C)cnc2[nH]1; ≥ 50%
20. COC(=O)c1cc2cc(NCc3cc(NC(=O)c4cc(Nc5cc[nH]n5)cc(C(F)(F)F)c4)ccc3C)cnc2[nH]1; < 50%
